# tgt: Cytochrome P450 2D6 (Homo sapiens)
# Sequence (P10635 whole entry): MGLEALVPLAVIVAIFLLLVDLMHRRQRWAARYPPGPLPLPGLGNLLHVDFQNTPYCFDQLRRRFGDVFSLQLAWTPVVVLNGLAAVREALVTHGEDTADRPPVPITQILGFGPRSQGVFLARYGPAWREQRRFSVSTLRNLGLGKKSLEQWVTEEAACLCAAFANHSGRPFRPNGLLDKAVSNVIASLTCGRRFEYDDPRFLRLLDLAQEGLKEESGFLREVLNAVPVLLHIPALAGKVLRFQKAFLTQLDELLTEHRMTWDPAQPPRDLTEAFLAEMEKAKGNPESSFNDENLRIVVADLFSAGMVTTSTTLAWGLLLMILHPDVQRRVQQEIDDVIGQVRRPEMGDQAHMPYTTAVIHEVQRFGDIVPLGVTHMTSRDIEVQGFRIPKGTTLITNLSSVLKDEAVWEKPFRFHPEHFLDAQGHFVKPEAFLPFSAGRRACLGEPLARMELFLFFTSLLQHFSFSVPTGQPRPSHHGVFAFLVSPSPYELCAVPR
readout-type: IC50

QUERY: Return IC50 (reported value) for this compound: CCOc1cc(CN2CCC3(CC2)CC(=O)N(c2ccc(C(=O)O)cc2)C3)cc(OCC)c1-c1ccc(F)cc1.O=C(O)C(F)(F)F
RESULT: > 50 µM

###

# test-method-notes: Volume of distribution in rat at 1 mg/kg, iv or 2 mg/kg, po
# Format: ADME, organism-based
# test-settings: in vivo
readout-type: Vd (L/kg)
Please respond with the number in L/kg and leave the unit unwritten.

QUERY: Supply reported Vd belonging to this compound: CCOc1cc(CN2CCC3(CC2)CC(=O)N(c2ccc(C(=O)O)cc2)C3)cc(OCC)c1-c1ccc(F)cc1.O=C(O)C(F)(F)F
RESULT: 2.38

###

# tgt: Somatostatin receptor type 5 (Homo sapiens, UniProt P35346)
# Sequence (P35346 whole entry): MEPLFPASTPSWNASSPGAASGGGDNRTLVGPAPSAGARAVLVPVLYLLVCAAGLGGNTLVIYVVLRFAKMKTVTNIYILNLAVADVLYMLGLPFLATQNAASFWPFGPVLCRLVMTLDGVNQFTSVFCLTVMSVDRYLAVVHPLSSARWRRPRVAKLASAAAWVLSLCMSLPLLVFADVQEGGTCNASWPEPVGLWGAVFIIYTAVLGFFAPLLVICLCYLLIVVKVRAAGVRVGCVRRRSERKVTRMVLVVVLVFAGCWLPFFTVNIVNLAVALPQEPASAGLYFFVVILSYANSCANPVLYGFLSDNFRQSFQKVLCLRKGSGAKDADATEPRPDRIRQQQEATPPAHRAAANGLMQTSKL
# test-method-notes: Antagonist activity at human SSTR5 expressed in CHO-K1 cell membranes assessed as reduction in SST-28-induced inhibition of forskolin-stimulated cAMP accumulation by LANCE assay
# Format: functional, cell-based
pIC50: −log10 of the molar value.
# cutoff 7 applies to pIC50; >= gives satisfied, < gives not satisfied

QUERY: Record CCOc1cc(CN2CCC(c3ncc(-c4ccc(F)cc4)[nH]3)CC2)cc(OCC)c1-c1ccc(F)cc1 ; criterion: pIC50 no lower than 7. Met?
RESULT: not satisfied

QUERY: Form field: pIC50 at least 7? Entry: CCOc1cc(CN2CCC(NC(=O)c3cncc(C)c3)CC2)cc(OCC)c1-c1ccc(F)cc1
RESULT: satisfied

QUERY: Check this compound for pIC50 at or above 7: CCOc1cc(CN2CC[C@H]3C(Nc4nc5ccc(C(=O)O)cc5o4)CC[C@H]32)cc(OCC)c1-c1ccc(F)cc1 (relative stereo)
RESULT: satisfied

QUERY: Quick check, pIC50 >= 7? CCOc1cc(CN2CCC(C3CCN(S(=O)(=O)c4ccccc4)CC3)CC2)cc(OCC)c1-c1ccc(F)cc1
RESULT: satisfied

QUERY: Does CCOc1cc(CN2CCC3(CC2)CCN(S(=O)(=O)c2cccnc2)CC3)cc(OCC)c1-c1ccc(F)cc1 have a reported pIC50 of at least 7?
RESULT: satisfied

###

# test-method-notes: Clearance in dog at […], iv or 1 mg/kg, po
# Assay type: ADME, organism-based, Canis lupus familiaris
# test-settings: in vivo
readout-type: clearance (L/h/kg)
Write the number in L/h/kg without appending the unit.

QUERY: Name the recorded clearance of the molecule listed here: CCOc1cc(CN2CCC3(CC2)CC(=O)N(c2ccc(C(=O)O)cc2)C3)cc(OCC)c1-c1ccc(F)cc1.O=C(O)C(F)(F)F
RESULT: 0.132

###

Answer each item with its documented IC50.
# tgt: Somatostatin receptor type 1 (Homo sapiens, UniProt P30872)
# Sequence (P30872 whole entry): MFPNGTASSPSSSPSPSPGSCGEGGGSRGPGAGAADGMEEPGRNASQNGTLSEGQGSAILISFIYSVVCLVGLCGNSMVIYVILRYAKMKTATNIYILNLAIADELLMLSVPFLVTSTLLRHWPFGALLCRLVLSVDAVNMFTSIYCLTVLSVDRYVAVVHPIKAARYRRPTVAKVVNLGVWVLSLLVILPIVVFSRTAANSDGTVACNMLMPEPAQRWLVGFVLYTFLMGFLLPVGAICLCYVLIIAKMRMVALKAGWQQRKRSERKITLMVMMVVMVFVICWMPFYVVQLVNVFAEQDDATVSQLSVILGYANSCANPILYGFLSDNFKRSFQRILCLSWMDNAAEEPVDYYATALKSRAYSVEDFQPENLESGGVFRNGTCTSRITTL
# test-method-notes: Antagonist activity at human SSTR1 expressed in CHO-K1 cell membranes

QUERY: Using the record for CCOc1cc(CN2CCC(NC(=O)c3cncc(C)c3)CC2)cc(OCC)c1-c1ccc(F)cc1 , state its measured IC50.
RESULT: < 0.3 µM

QUERY: Quickly give me recorded IC50 for CCOc1cc(CN2CC[C@H]3C(Nc4nc5ccc(C(=O)O)cc5o4)CC[C@H]32)cc(OCC)c1-c1ccc(F)cc1 (relative stereo)
RESULT: 6 µM

QUERY: Determine from records and report IC50 for CCOc1cc(CN2CCC3(CC2)CC(=O)N(c2ccc(C(=O)O)cc2)C3)cc(OCC)c1-c1ccc(F)cc1.O=C(O)C(F)(F)F
RESULT: > 10 µM

###

I'd be grateful if you could share measured pIC50 for these entries.
# tgt: Somatostatin receptor type 5 (Mus musculus, UniProt O08858)
# Sequence (O08858 whole entry): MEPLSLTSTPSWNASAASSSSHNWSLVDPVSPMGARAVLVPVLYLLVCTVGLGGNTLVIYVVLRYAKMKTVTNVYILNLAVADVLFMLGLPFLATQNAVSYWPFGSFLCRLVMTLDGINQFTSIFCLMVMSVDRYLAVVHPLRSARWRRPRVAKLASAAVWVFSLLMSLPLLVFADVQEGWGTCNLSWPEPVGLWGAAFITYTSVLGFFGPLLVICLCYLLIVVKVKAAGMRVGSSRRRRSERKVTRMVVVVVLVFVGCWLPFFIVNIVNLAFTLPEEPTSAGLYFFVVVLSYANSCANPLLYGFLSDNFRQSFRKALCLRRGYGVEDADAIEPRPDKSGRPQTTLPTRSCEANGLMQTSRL
# test-method-notes: Displacement of (3-125I-Tyr11)-SRIF-28 from mouse SSTR5 expressed in CHO-K1 cell membranes by filtration binding assay
The meaning of pIC50 here: minus log10 of the concentration in molar units.

QUERY: Supply measured pIC50 of CCOc1cc(CN2CCC(Oc3nccc(Cl)n3)CC2)cc(OCC)c1-c1ccc(F)cc1 in your reply.
RESULT: 7.89

QUERY: Look up and report measured pIC50 for this entry: CCOc1cc(CN2CCC(c3ncc(-c4ccc(F)cc4)[nH]3)CC2)cc(OCC)c1-c1ccc(F)cc1
RESULT: 8.57

QUERY: Note pIC50 for the compound shown: CCOc1cc(CN2CCC(COc3cccc4cccnc34)CC2)cc(OCC)c1-c1ccc(F)cc1
RESULT: 9.22

QUERY: Dear colleague, please send me the reported pIC50 for CCOc1cc(CN2CCC3(CC2)CC(Cc2ccc(F)cc2)C(=O)O3)cc(OCC)c1-c1ccc(F)cc1 (racemic) when you can.
RESULT: 8.60

QUERY: Quick one: give measured pIC50 for CCOc1cc(CN2CC[C@H]3C(Nc4nc5ccc(C(=O)O)cc5o4)CC[C@H]32)cc(OCC)c1-c1ccc(F)cc1 (relative stereo)
RESULT: 7.80

###

# tgt: Somatostatin receptor type 5 (Homo sapiens)
# test-method-notes: Antagonist activity at human SSTR5 expressed in CHO-K1 cell membranes assessed as reduction in SST-28-induced inhibition of forskolin-stimulated cAMP accumulation by LANCE assay
# Assay type: functional, cell-based
Consider the following compounds; for each one, report its IC50.
Write the value in nM as a bare number.

QUERY: Answer with the recorded IC50 for the compound listed here: CCOc1cc(CN2CCC3(CC2)NC(=O)NC3=O)cc(OCC)c1-c1ccc(F)cc1
RESULT: 110

QUERY: Using the record for CCOc1cc(CN2CCC(COc3cccc4cccnc34)CC2)cc(OCC)c1-c1ccc(F)cc1 , state its measured IC50.
RESULT: 67.8

QUERY: Indicate the recorded IC50 value for this compound: CCOc1cc(CN2CCC(Oc3nccc(Cl)n3)CC2)cc(OCC)c1-c1ccc(F)cc1
RESULT: 73

QUERY: Specify measured IC50 for CCOc1cc(CN2CCC3(CC2)CC(Cc2ccc(F)cc2)C(=O)O3)cc(OCC)c1-c1ccc(F)cc1 (racemic) .
RESULT: 67
